Attribution: patent US20240262842A1

system-under-test: interaction between GMPPNP-bound recombinant K-Ras4B G12C mutant protein and cRAF RAS-binding domain (cRAF-RBD) (Homo sapiens, UniProt P01116, G12C)
Construct: His-tag (N)
Sequence (P01116 with tags, fused parts or gaps isoform P01116-2 G12C): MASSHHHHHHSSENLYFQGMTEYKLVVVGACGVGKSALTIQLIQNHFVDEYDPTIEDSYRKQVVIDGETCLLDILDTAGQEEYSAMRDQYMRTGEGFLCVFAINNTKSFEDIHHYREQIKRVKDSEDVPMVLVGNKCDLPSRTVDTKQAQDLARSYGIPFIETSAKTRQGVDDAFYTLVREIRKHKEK
procedure-text: Inhibitory activity on interaction between KRAS G12C and cRAF (Alpha technology)
settings: GMPPNP-bound KRAS G12C incubated with compound 25° C. 1 hour; Table 2-1; read-out: IC50
Procedure: Interaction between recombinant K-Ras4B G12C mutant protein (amino acids 1-169, SEQ ID NO:2) and cRAF RAS-binding domain (cRAF-RBD, amino acids 50-132, Jena Biosciences GmbH) was measured using Alpha technology (PerkinElmer Inc.). Recombinant KRAS G12C protein with an N-terminal His-tag was expressed in E. coli and purified by affinity chromatography. […]
endpoint-name: IC50

get_value(item= CN1CCc2cc(C(=O)c3cc(F)c(NC(=O)/C=C/CNCC(C)(C)O)c(F)c3)n3cccc(c23)-c2c(C(F)(F)F)cc3c(ncn3C)c21 [Example 112] , readout=IC50) returns 29.2 nM

get_value(item= Cn1cnc2c3c(c(C(F)(F)F)cc21)-c1cccn2c(C(=O)c4cc(F)c(NC(=O)/C=C/CN5C6COCC5C6)c(F)c4)cc(c12)CCO3 [Example 212] , readout=IC50) returns 16.3 nM

get_value(item= COc1cc2c(nc(C)n2C)c2c1-c1cccn3c(C(=O)c4cc(F)c(NC(=O)/C=C/CNC56CCC(CC5)OC6)c(F)c4)cc(c13)CCN2C [Example 121] , readout=IC50) returns 23 nM

get_value(item= COc1cc2c(nc(C)n2C)c2c1-c1cccn3c(C(=O)c4cc(F)c(NC(=O)/C=C/CN[C@H]5CC[C@H](OC)CC5)c(F)c4)cc(c13)CCN2C [Example 78] , readout=IC50) returns 33.7 nM

get_value(item= CN1CCc2cc(C(=O)c3cc(F)c(NC(=O)/C=C/CN4[C@@H]5CC[C@H]4[C@H](O)C5)c(F)c3)n3cccc(c23)-c2c(C(F)(F)F)cc3c(ncn3C)c21 (single isomer, unassigned) [Example 206] , readout=IC50) returns 15.4 nM

get_value(item= CC1Cc2cc(C(=O)c3cc(F)c(NC(=O)/C=C/CNC4(C)COC4)c(F)c3)n3cccc(c23)-c2c(C(F)(F)F)cc3c(ncn3C)c2O1 (single isomer, unassigned) [Example 130-1] , readout=IC50) returns 26.3 nM

get_value(item= COc1cc2c(nc(C)n2C)c2c1-c1cc(F)cn3c(C(=O)c4cc(F)c(NC(=O)/C=C/CNC5(C)CC5)c(F)c4)cc(c13)CCN2C (single isomer, unassigned) [Example 238] , readout=IC50) returns 8.76 nM

get_value(item= Cc1nc2c3c(c(C(F)(F)F)cc2n1C)-c1cccn2c(C(=O)c4ccc(NC(=O)/C=C/CNC5(C)COC5)c(F)c4)cc(c12)CCO3 [Example 68] , readout=IC50) returns 91.2 nM

get_value(item= CC(=O)N1CCC(C)(NC/C=C/C(=O)Nc2c(F)cc(C(=O)c3cc4c5c(cccn35)-c3c(C(F)(F)F)cc5c(ncn5C)c3N(C)CC4)cc2F)CC1 [Example 86] , readout=IC50) returns 22.3 nM
